# System: Salmonella typhimurium
# assay notes: Mutagenicity in Salmonella typhimurium TA98 at 0.625 mg/ml after 48 hrs by AMES MPF assay in absence of Sprague-Dawley rat liver microsomal S9 fraction relative to baseline
# Assay type: toxicity, organism-based
# condition parameters: salmonella enterica subsp. enterica serovar typhimurium
Can you tell me fold change (FC) for the items I'm about to list?
One number for each entry.

compound	study system	fold change (FC)
Fc1ccc(C2CC(c3ccc(Cl)s3)=NN2c2nc(-c3ccc(Br)cc3)cs2)cc1 (stereo unspecified)	Salmonella typhimurium	0

Please go through the list and note fold change (FC) for each compound.
1. Cc1ccc(C2=NN(c3nc(-c4ccc(S(C)(=O)=O)cc4)cs3)C(c3ccc(F)cc3)C2)s1 (stereo unspecified)
2. Cc1ccc(C2=NN(c3nc(-c4ccc(C#N)cc4)cs3)C(c3ccc(F)cc3)C2)s1 (stereo unspecified)
3. Fc1ccc(C2CC(c3ccc(Cl)s3)=NN2c2nc(-c3ccc(C(F)(F)F)cc3)cs2)cc1 (stereo unspecified)
4. Fc1ccc(C2CC(c3ccc(Cl)s3)=NN2c2nc(-c3ccc(Cl)cc3)cs2)cc1 (stereo unspecified)

### Response
1. 0.44
2. 1.11
3. 0.67
4. 0

### Prompt What does the record list as fold change (FC) for Fc1ccc(C2CC(c3ccc(Cl)s3)=NN2c2nc(-c3ccccc3)cs2)cc1 (stereo unspecified) ?
### Response 0.67

----------
Can you tell me fold change (FC) for the items I'm about to list?
# Test system: Salmonella typhimurium
# assay notes: Mutagenicity in Salmonella typhimurium TA98 at 5 mg/ml after 48 hrs by AMES MPF assay in presence of Sprague-Dawley rat liver microsomal S9 fraction relative to baseline
# Type: toxicity, organism-based
# condition parameters: salmonella enterica subsp. enterica serovar typhimurium

Solved cases (5 shown):
compound	fold change (FC)
Fc1ccc(C2CC(c3ccc(Cl)s3)=NN2c2nc(-c3ccc(Cl)cc3)cs2)cc1 (stereo unspecified)	0.81
Fc1ccc(C2CC(c3ccc(Cl)s3)=NN2c2nc(-c3ccccc3)cs2)cc1 (stereo unspecified)	0.41
Cc1ccc(C2=NN(c3nc(-c4ccc(S(C)(=O)=O)cc4)cs3)C(c3ccc(F)cc3)C2)s1 (stereo unspecified)	0.81
Fc1ccc(C2CC(c3ccc(Cl)s3)=NN2c2nc(-c3ccc(C(F)(F)F)cc3)cs2)cc1 (stereo unspecified)	0.98
Cc1ccc(C2=NN(c3nc(-c4ccc(C#N)cc4)cs3)C(c3ccc(F)cc3)C2)s1 (stereo unspecified)	1.16

Now, please, on to the next compound.
### Prompt Fill in the blank: the reported fold change (FC) of Fc1ccc(C2CC(c3ccc(Cl)s3)=NN2c2nc(-c3ccc(Br)cc3)cs2)cc1 (stereo unspecified) is ____.
### Response 0.81

----------
Please respond with reported fold change (FC) for every item in the list.
# Tested on: Salmonella typhimurium
# assay notes: Mutagenicity in Salmonella typhimurium TA98 at 2.5 mg/ml after 48 hrs by AMES MPF assay in presence of Sprague-Dawley rat liver microsomal S9 fraction relative to baseline
# Assay type: toxicity, organism-based
# condition parameters: salmonella enterica subsp. enterica serovar typhimurium
Give bare numbers.

Batch: fold change (FC) for all items listed.
1. Cc1ccc(C2=NN(c3nc(-c4ccc(C#N)cc4)cs3)C(c3ccc(F)cc3)C2)s1 (stereo unspecified)
2. Fc1ccc(C2CC(c3ccc(Cl)s3)=NN2c2nc(-c3ccc(Br)cc3)cs2)cc1 (stereo unspecified)
3. Fc1ccc(C2CC(c3ccc(Cl)s3)=NN2c2nc(-c3ccccc3)cs2)cc1 (stereo unspecified)
4. Fc1ccc(C2CC(c3ccc(Cl)s3)=NN2c2nc(-c3ccc(C(F)(F)F)cc3)cs2)cc1 (stereo unspecified)
5. Cc1ccc(C2=NN(c3nc(-c4ccc(S(C)(=O)=O)cc4)cs3)C(c3ccc(F)cc3)C2)s1 (stereo unspecified)

### Response
1. 0.89
2. 0.68
3. 0.27
4. 0.33
5. 1.36

### Prompt Which fold change (FC) reading was recorded for the compound Fc1ccc(C2CC(c3ccc(Cl)s3)=NN2c2nc(-c3ccc(Cl)cc3)cs2)cc1 (stereo unspecified) ?
### Response 0.54

----------
Give measured fold change (FC) for each item. Keep answers brief.
# Test system: Salmonella typhimurium
# assay notes: Mutagenicity in Salmonella typhimurium TA100 at 5 mg/ml after 48 hrs by AMES MPF assay in presence of Sprague-Dawley rat liver microsomal S9 fraction relative to baseline
# Assay type: toxicity, organism-based
# condition parameters: salmonella enterica subsp. enterica serovar typhimurium
Give bare numbers.

Example entries and their recorded answers appear below.
compound	fold change (FC)
Fc1ccc(C2CC(c3ccc(Cl)s3)=NN2c2nc(-c3ccccc3)cs2)cc1 (stereo unspecified)	4.38
Fc1ccc(C2CC(c3ccc(Cl)s3)=NN2c2nc(-c3ccc(Br)cc3)cs2)cc1 (stereo unspecified)	2.54
Cc1ccc(C2=NN(c3nc(-c4ccc(C#N)cc4)cs3)C(c3ccc(F)cc3)C2)s1 (stereo unspecified)	1.01
Fc1ccc(C2CC(c3ccc(Cl)s3)=NN2c2nc(-c3ccc(Cl)cc3)cs2)cc1 (stereo unspecified)	3.92
Cc1ccc(C2=NN(c3nc(-c4ccc(S(C)(=O)=O)cc4)cs3)C(c3ccc(F)cc3)C2)s1 (stereo unspecified)	0.93

Then there is this compound:
### Prompt What does the record list as fold change (FC) for Fc1ccc(C2CC(c3ccc(Cl)s3)=NN2c2nc(-c3ccc(C(F)(F)F)cc3)cs2)cc1 (stereo unspecified) ?
### Response 2.31

----------
# Test system: Salmonella typhimurium
# assay notes: Mutagenicity in Salmonella typhimurium TA98 at 0.156 mg/ml after 48 hrs by AMES MPF assay in presence of Sprague-Dawley rat liver microsomal S9 fraction relative to baseline
# Assay type: toxicity, organism-based
# condition parameters: salmonella enterica subsp. enterica serovar typhimurium
Field: fold change (FC). Provide a value for each of the compounds that follow.
Give bare numbers.

Consider the worked cases shown below.
compound	study system	fold change (FC)
Cc1ccc(C2=NN(c3nc(-c4ccc(S(C)(=O)=O)cc4)cs3)C(c3ccc(F)cc3)C2)s1 (stereo unspecified)	Salmonella typhimurium	0.41
Fc1ccc(C2CC(c3ccc(Cl)s3)=NN2c2nc(-c3ccccc3)cs2)cc1 (stereo unspecified)	Salmonella typhimurium	1.63
Fc1ccc(C2CC(c3ccc(Cl)s3)=NN2c2nc(-c3ccc(Cl)cc3)cs2)cc1 (stereo unspecified)	Salmonella typhimurium	0.68

Please give fold change (FC) for each item listed below.
1. Fc1ccc(C2CC(c3ccc(Cl)s3)=NN2c2nc(-c3ccc(C(F)(F)F)cc3)cs2)cc1 (stereo unspecified)
2. Fc1ccc(C2CC(c3ccc(Cl)s3)=NN2c2nc(-c3ccc(Br)cc3)cs2)cc1 (stereo unspecified)

### Response
1. 0.87
2. 0.68

### Prompt Field request: fold change (FC) | item: Cc1ccc(C2=NN(c3nc(-c4ccc(C#N)cc4)cs3)C(c3ccc(F)cc3)C2)s1 (stereo unspecified)
### Response 0.27

----------
# System: Aspergillus flavus
# assay notes: Antifungal activity against Aspergillus flavus NRRL 980 after 72 hrs by broth microdilution assay
# Format: functional
# condition parameters: NRRL 980, 72 h
Please provide measured MIC for the entries that follow.
Answers are plain numbers, in µg/mL.

Reference set (5 entries):
compound	quantity	readout unit	reported measurement
Cc1ccc(C2=NN(c3nc(-c4ccc(Cl)cc4)cs3)C(c3ccc(F)cc3)C2)s1 (centres undefined)	MIC	µg/mL	250
Cc1ccc(C2=NN(c3nc(-c4ccc(S(C)(=O)=O)cc4)cs3)C(c3ccc(F)cc3)C2)s1 (centres undefined)	MIC	µg/mL	125
Cc1ccc(C2=NN(c3nc(-c4ccc(C(F)(F)F)cc4)cs3)C(c3ccc(F)cc3)C2)s1 (centres undefined)	MIC	µg/mL	250
Cc1ccc(C2=NN(c3nc(-c4ccc(F)cc4)cs3)C(c3ccc(F)cc3)C2)s1 (centres undefined)	MIC	µg/mL	250
Cc1ccc(C2=NN(c3nc(-c4ccc([N+](=O)[O-])cc4)cs3)C(c3ccc(F)cc3)C2)s1 (centres undefined)	MIC	µg/mL	250

Dear reader, for each entry below, please note its MIC.
1. N#Cc1ccc(-c2csc(N3N=C(c4ccc(Cl)s4)CC3c3ccc(F)cc3)n2)cc1 (centres undefined)
2. Fc1ccc(C2CC(c3ccc(Cl)s3)=NN2c2nc(-c3ccccc3)cs2)cc1 (centres undefined)
3. O=[N+]([O-])c1ccc(-c2csc(N3N=C(c4ccc(Cl)s4)CC3c3ccc(F)cc3)n2)cc1 (centres undefined)
4. Cc1ccc(C2=NN(c3nc(-c4ccc5c(c4)OCO5)cs3)C(c3ccc(F)cc3)C2)s1 (centres undefined)
5. Cc1ccc(C2=NN(c3nc(-c4ccc(C#N)cc4)cs3)C(c3ccc(F)cc3)C2)s1 (centres undefined)
6. CS(=O)(=O)c1ccc(-c2csc(N3N=C(c4ccc(Cl)s4)CC3c3ccc(F)cc3)n2)cc1 (centres undefined)
7. COc1ccc(-c2csc(N3N=C(c4ccc(Cl)s4)CC3c3ccc(F)cc3)n2)cc1 (centres undefined)
8. Fc1ccc(C2CC(c3ccc(Cl)s3)=NN2c2nc(-c3ccc(Br)cc3)cs2)cc1 (centres undefined)

### Response
1. 250
2. 125
3. 250
4. 250
5. 125
6. 250
7. 250
8. 125

### Prompt Using the record for Cc1ccc(-c2csc(N3N=C(c4ccc(Cl)s4)CC3c3ccc(F)cc3)n2)cc1 (centres undefined) , report its MIC.
### Response 250
